Tested on: SN12C renal
protocol.notes: NCI tumour cell line growth inhibition, 48 h
measure.name: TGI

compound	result
CN(C)c1ccc(/C=N/Nc2ccc(-c3nc4ccccc4[nH]3)cc2)cc1	> 50 µM
CCOc1ccc(N2C(N)=NC(N)=NC2(C)C)cc1	> 100 µM
COCCn1cc(-c2csc(-c3c[nH]c4ccc(F)cc34)n2)c2cccnc21	> 100 µM
CC(=O)OCC1OC(O[C@@H]2C[C@H]3C(C)(C)[C@H](OC(C)=O)CC[C@]3(C)[C@H]3CC[C@@H]4[C@]5(CC[C@@]4(C)[C@@]32C)O[C@@H]([C@H](O)C(C)(C)O)C[C@@H]5C)C(O)C(O)C1O (some centres undefined)	24 µM
O=C(n1c(=O)n(-c2ccc([N+](=O)[O-])cc2)c(=O)n1C(=O)C(Cl)(Cl)Cl)C(Cl)(Cl)Cl	> 100 µM
Nc1ccccc1C#Cc1ccccc1C#CCCCCO	9.49 µM
O=c1c2cc(Cl)ccc2n2nnc3ccc(NCCNCCO)c1c32	2.88 µM
O=c1[nH]nc(Cc2ccc([N+](=O)[O-])cc2)[nH]1	> 100 µM
O=C(O)C(O)C(O)C1[O][Sb][O]C1CO (centres undefined)	> 100 µM

###

Test system: U251 CNS
protocol.notes: NCI tumour cell line growth inhibition, 48 h
measure.name: TGI

molecule	measure.name	result
C1CN(C23OC4(N5CCOCC5)C5C6CC(C7C6C4C72)C53)CCO1 (stereo unspecified)	TGI	> 100 µM
COc1cc(C(=O)c2c(-c3ccccc3)oc3ccccc23)cc(OC)c1O	TGI	16.1 µM
Cc1nc(-c2ccc(Cl)cc2)cn2c1nc1ccccc12	TGI	> 100 µM
COc1ccc(/C=C/CO)cc1OC	TGI	> 100 µM
Cc1cc(C(C)(C)C)c(OCCCN2CCOCC2)c(C(C)(C)C)c1	TGI	33.2 µM
O=C(O)c1oc2ccc([N+](=O)[O-])c3c2c1CCC3	TGI	> 100 µM

###

Tested on: HL-60(TB) leukemia
protocol.notes: NCI tumour cell line growth inhibition, 48 h
Listed below: TGI values for each entry.

compound	target	qualifier	TGI [µM]
COc1cc(SC)ccc1C(=O)N1CCCC(C)C1 (stereo not given)	HL-60(TB) leukemia	>	100
COCCOCCOCCOCCOc1ccc2c(c1)C(=O)c1nc3ncccc3c(=O)n1-2	HL-60(TB) leukemia	=	5.05
N#CC(/C(=N\NC(N)=S)C(=O)NC1C2CC3CC(C2)CC1C3)c1ccc(Cl)cc1 (stereo not given)	HL-60(TB) leukemia	>	100
O=C1C(=O)C(CCCO)(CCCO)CCCCCCCCC1(CCCO)CCCO	HL-60(TB) leukemia	=	29.9
COc1cccc2c1C(=O)c1c(O)c3c(c(O)c1C2=O)C[C@](O)(C(=O)CO)CC3OC1CC(N)C(OC2CCCCO2)C(C)O1 (stereo not given in full)	HL-60(TB) leukemia	=	0.294
c1ccc(CN(Cc2ccccn2)Cn2cccn2)nc1	HL-60(TB) leukemia	=	55.8
NC(=O)c1ccc(NC(=O)c2oc3ccccc3c2-c2cnn(-c3ccccc3)c2)cc1	HL-60(TB) leukemia	>	100
COc1ccc2c(c1)[n+]([O-])c(-c1ccc(Cl)c(Cl)c1)c(N)[n+]2[O-]	HL-60(TB) leukemia	=	61
CC1=NN(C(=O)Cc2ccccc2)C(=O)/C1=C\c1cccc(O)c1	HL-60(TB) leukemia	>	100
S=C1OC2C3C4CC5C3C(O1)C1C5C4C21 (stereo not given)	HL-60(TB) leukemia	>	100

###

System: OVCAR-4 ovarian
protocol.notes: NCI tumour cell line growth inhibition, 48 h

compound	target	units.text	qualifier	TGI
O=c1c2cc(Cl)ccc2n2nnc3ccc(NCCNCCO)c1c32	OVCAR-4 ovarian	µM	=	2.52
Cn1cc(/C=C2\C(=O)Nc3cccnc32)c2ccccc21	OVCAR-4 ovarian	µM	>	25
O=C(O)C1(Cc2ccc3c(c2)CCC3)Cc2cc3c(cc2C1)CCC3	OVCAR-4 ovarian	µM	>	100
C=C1C(=O)O[C@H]2[C@H](OC(C)=O)[C@@H](C)CCC/C(C)=C/CC[C@]3(CO3)[C@H](O)C[C@@H]12	OVCAR-4 ovarian	µM	=	21.9
CCCCCCCCCC[C@@H](O)[C@H]1CC[C@@H]([C@H]2CC[C@H]([C@H](O)CCCCCCCCCC[C@@H]3CC(CC(C)=O)C(=O)O3)O2)O1 (stereo partly drawn)	OVCAR-4 ovarian	µM	=	85.5
Cc1nc2ccccc2n1CCc1nc2ccccc2[nH]1	OVCAR-4 ovarian	µM	>	100
COc1ccccc1OCC(O)CO (stereo not drawn)	OVCAR-4 ovarian	µM	>	100
O=[N+]([O-])C(=C(c1ccccc1)c1ccccc1)[N+](=O)[O-]	OVCAR-4 ovarian	µM	=	28.6

###

Test system: DU-145 prostate
protocol.notes: NCI tumour cell line growth inhibition, 48 h
Listed below: TGI values for each entry.
measure.name: TGI (µM)

compound	units.text	qualifier	numeric.readout
Cn1c(=O)c2[nH]cnc2n(C)c1=O	µM	>	100
COc1cc(C(=O)c2c(-c3ccccc3)oc3ccccc23)cc(OC)c1O	µM	=	13.6
Cc1ccc2c3ccc4c(c3n(C)c2c1)C(=O)C=CC4=O	µM	>	10
C=CC(=O)N1C/C(=C\c2ccc(F)cc2)C(=O)/C(=C/c2ccc(F)cc2)C1	µM	=	13.5
N#CC(C#N)=C/C=C/c1cccc([N+](=O)[O-])c1	µM	=	12.8
CCCCN=C(OC1C=CCCC1)SC (configuration not stated)	µM	>	100
N#Cc1nc(Cc2cccs2)oc1N	µM	>	100

###

Listed below: GI50 values for each entry.
Test system: SNB-75 CNS
protocol.notes: NCI tumour cell line growth inhibition, 48 h
measure.name: GI50

compound	target	result
Cn1cc(/C=C2\C(=O)Nc3cccnc32)c2ccccc21	SNB-75 CNS	> 19600 nM
N#CC(C#N)=C/C=C/c1cccc([N+](=O)[O-])c1	SNB-75 CNS	1730 nM
CCOc1ccc(N2C(N)=NC(N)=NC2(C)C)cc1	SNB-75 CNS	60500 nM
Fc1cc(Nc2ccc3c(OCCCN4CCOCC4)cccc3n2)ccc1Cl	SNB-75 CNS	1860 nM
NC(=O)c1ccc(NC(=O)c2oc3ccccc3c2-c2cnn(-c3ccccc3)c2)cc1	SNB-75 CNS	1890 nM
C[C@@H]1CC[C@H]2C(CN3CCN(CC4=C(C(F)(F)F)O[C@@H]5O[C@@]6(C)CC[C@H]7[C@H](C)CC[C@@H]4[C@@]57OO6)CC3)=C(C(F)(F)F)O[C@@H]3O[C@@]4(C)CC[C@@H]1[C@]32OO4	SNB-75 CNS	1740 nM
COc1cc([N+](=O)[O-])c2ncccc2c1O	SNB-75 CNS	2960 nM
Cc1ccc(Nc2ccnc(Nc3cccc(C(N)=O)c3)n2)cc1O	SNB-75 CNS	431 nM
CCN(CC)c1ccc(/C=N\NC(=O)c2cccc(Nc3ccnc(C(F)(F)F)c3)c2)c(O)c1	SNB-75 CNS	253 nM
COCCn1cc(-c2csc(-c3c[nH]c4ccc(F)cc34)n2)c2cccnc21	SNB-75 CNS	2970 nM
C/C(=N\n1c(N)c(C#N)c(-c2ccc(Cl)cc2)c(C#N)c1=O)c1cccnc1	SNB-75 CNS	14600 nM
O.O=[Se](=O)(O)O.[NH-]C1CCCCC1[NH-].[Pt+2] (centres undefined)	SNB-75 CNS	16900 nM
CCc1ccc(/C=C2/SC(=S)NC2=O)cc1	SNB-75 CNS	21700 nM
CC(C)=CCC[C@](C)(O)[C@H]1CC[C@]2(C)[C@@H]1CC[C@@H]1[C@@]3(C)CC[C@H](OC(=O)CCC(=O)O)C(C)(C)[C@@H]3CC[C@]12C	SNB-75 CNS	> 100000 nM

###

Test system: MALME-3M melanoma
protocol.notes: NCI tumour cell line growth inhibition, 48 h
measure.name: TGI (µM)

compound	measure.name	qualifier	numeric.readout
C=C(C)[C@@H]1CC[C@]2(C#N)CC[C@]3(C)[C@H](CC[C@@H]4[C@@]5(C)CCCNC(C)(C)[C@@H]5CC[C@]43C)[C@@H]12	TGI	=	3.2
C[C@@H]1CC2(N=CCS2)[C@]2(O)O[C@@H]3C[C@@]4(C)[C@H](C[C@H]3O[C@@H]2O1)C[C@H]1O[C@]12[C@@H]4[C@H](O)C(=O)[C@]1(C)C(C3=CC(=O)OC3)CC[C@]21O (stereo not given in full)	TGI	=	0.0285
C[P+](C)(CC(F)(F)F)c1ccccc1	TGI	>	100
Cc1cc(=O)[nH]c(S(=O)(=O)NC(=S)Nc2ccc(Br)cc2)n1	TGI	>	100
CCCCC[C@@H]1OC(=O)[C@@]2(CC3c4ccccc4C2c2ccccc23)[C@H]1C(=O)OC	TGI	>	100
Cc1ccc2c3ccc4c(c3n(C)c2c1)C(=O)C=CC4=O	TGI	=	6.01
CC(Cl)CC(=O)Nc1ccc2c(c1)oc(=O)c1cc(NC(=O)CC(C)Cl)ccc12 (stereo not given)	TGI	=	21.3
Cc1cc2nnn(C3CCCO3)c2cc1C (stereo not given)	TGI	>	100
O=C(O)C1(Cc2ccc3c(c2)CCC3)Cc2cc3c(cc2C1)CCC3	TGI	>	100
COC(=N)/C(=C1\OC(N)=C(c2ccc(Cl)cc2)C1=O)c1ccc(Cl)cc1	TGI	>	100
